- system: IGF1R Ba/F3 (Homo sapiens, UniProt P08069)
- Sequence (P08069 999-1274 limits assumed): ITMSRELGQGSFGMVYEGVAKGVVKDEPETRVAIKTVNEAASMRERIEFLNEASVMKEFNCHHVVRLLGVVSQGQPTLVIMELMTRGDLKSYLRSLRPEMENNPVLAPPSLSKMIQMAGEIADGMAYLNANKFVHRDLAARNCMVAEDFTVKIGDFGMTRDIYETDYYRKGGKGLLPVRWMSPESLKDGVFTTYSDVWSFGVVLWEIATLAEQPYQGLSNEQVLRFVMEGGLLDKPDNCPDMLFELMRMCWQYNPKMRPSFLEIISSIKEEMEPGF
- protocolDetails: Ba/F3 Cell Viability Inhibition Assay (Tel-TK transformed Ba/F3 lines)
- Format: cell-based, murine
- Set-up: the printed alternative
- assayConditions: Tel-TK (IGF1R) transformed Ba/F3 cells, 48 hours incubation, cell viability (Britelite luminescence)
rule met if IC50 is below 0.05 µM. rule not met if not; exact matches included in rule not met.

{"molecule": "Cc1cc(Nc2nc(Nc3cc(C)c(-c4cnn(C)c4)cc3C)ncc2Cl)n[nH]1 [Compound 12]", "labelValue": "rule met"}
{"molecule": "Cc1cc(Nc2nc(Nc3cc(C)c(-c4ccncc4)cc3F)ncc2Cl)n[nH]1 [Compound 2]", "labelValue": "rule not met"}
{"molecule": "Cc1cc(Nc2nc(Nc3cc(C)c(-c4ccccn4)cc3F)ncc2Cl)n[nH]1 [Compound 6]", "labelValue": "rule not met"}
{"molecule": "Cc1cc(Nc2nc(Nc3cc(C)c([C@H]4CC[C@@H](O)CC4)cc3C)ncc2C(F)(F)F)n[nH]1 [Compound 42]", "labelValue": "rule not met"}
{"molecule": "Cc1cc2c(Nc3ncc(Cl)c(Nc4cc(C)[nH]n4)n3)cccc2nn1 [Compound 83]", "labelValue": "rule not met"}
{"molecule": "Cc1cc(Nc2nc(Nc3cc(C)c([C@H]4CC[C@H](N5CCN(C)CC5)CC4)cc3F)ncc2Cl)[nH]n1 [Compound 53]", "labelValue": "rule met"}
{"molecule": "Cc1cc(Nc2nc(Nc3cc(C)c([C@H]4CC[C@H](N5CCOCC5)CC4)cc3C)ncc2C(F)(F)F)n[nH]1 [Compound 67]", "labelValue": "rule met"}
{"molecule": "Cc1cc(Nc2nc(Nc3cc(C)c([C@H]4CC[C@H](NC5CC5)CC4)cc3C)ncc2Cl)n[nH]1 [Compound 46]", "labelValue": "rule met"}
{"molecule": "Cc1cc(Nc2nc(Nc3cc(C)c(-c4ccc5c(c4)CCNC5)cc3C)ncc2Cl)n[nH]1 [Compound 74]", "labelValue": "rule not met"}
